# System: L. mexicana amazonensis promastigotes
# Procedure summary: In vitro activity against Leishmania promastigotes (amazonensis)
# Assay type: cell-based
# Assay setup: Leishmania mexicana, mean inhibitory concentration, read-out: CI50 (the source's name)
# Protocol: Mean inhibitory concentrations (Cl50%) against L. mexicana amazonensis, L. donovani infantum and L. braziliensis braziliensis promastigotes were determined according to the method described by Bodley A L et al (J Infect Dis 1995; 172(4):1157-9.). Minimal parasiticidal concentrations (CP100, minimal concentrations capable of abolishing the motility of all parasites in the culture) were also determined. Amphotericin B and Glucantime® were tested as reference drugs.
// boundary case: IC50 equal to 0.5 µg/mL maps to F; strictly smaller maps to T

- CC(=Cc1ccc(Br)o1)[N+](=O)[O-]: T
- O=[N+]([O-])C(Br)=Cc1ccco1: F
- CC(=Cc1ccco1)[N+](=O)[O-]: T
- O=[N+]([O-])C(Br)=Cc1ccc(Br)o1: T
- O=[N+]([O-])C=Cc1ccco1: F

Consider the record given below.
Asked: Determine whether this molecule shows IC50 lower than 0.5 µg/mL (ties excluded): O=[N+]([O-])C=Cc1ccc(Br)o1
Given back: T

---

# Test system: L. braziliensis braziliensis promastigotes
# Procedure summary: In vitro activity against Leishmania promastigotes (braziliensis)
# Assay type: cell-based
# Assay setup: Leishmania braziliensis, mean inhibitory concentration, read-out: CI50 (the source's name)
For each of the compounds below, state its IC50.
Give bare numbers, in µg/mL.

* O=[N+]([O-])C(Br)=Cc1ccc(Br)o1 [D, 2-bromo-5-(2-bromo-2-nitrovinyl)-furan] | 0.26
* O=[N+]([O-])C=Cc1ccc(Br)o1 [B, 2-bromo-5-(2-nitrovinyl)-furan] | 0.18
* CC(=Cc1ccc(Br)o1)[N+](=O)[O-] [F, 2-bromo-5-(2-methyl-2-nitrovinyl)-furan] | 0.24
* O=[N+]([O-])C(Br)=Cc1ccco1 [Compound C, 2-(2-bromo-2-nitrovinyl)-furan] | 0.25
* CC(=Cc1ccco1)[N+](=O)[O-] [E, 2-(2-methyl-2-nitrovinyl)-furan] | 0.35

Please examine the following record next.
Assay L. braziliensis braziliensis promastigotes, sample O=[N+]([O-])C=Cc1ccco1 [A, 2-(2-nitrovinyl)-furan] , IC50 read: 0.2

---

# Procedure summary: Toxicological studies (LD50, LD0, MTD), intraperitoneal
# Format: in vivo, female Balb/c mice
# Assay setup: female, Balb/c, mouse, in vivo, ip, repeated intraperitoneal administration every 12 h during 14 days; read-out: MTD (every 12 h)
# Protocol: The same animal model used for in vivo anti-leishmanial tests was used to perform comparative toxicological studies of the β-nitrovinylfuran derivatives. The main excipient of the compositions used with this purpose was the sunflower oil. […] The maximal non-lethal doses (LD0) were calculated from the dose-mortality curves. […]
Measured endpoint: MTD at 14 days

Input O=[N+]([O-])C(Br)=Cc1ccc(Br)o1 . Output MTD at 14 days: 2 to 3 mg/kg

---

# Procedure summary: Toxicological studies (LD50, LD0, MTD), intraperitoneal
# Assay type: in vivo, female Balb/c mice
# Assay setup: maximal non-lethal dose calculated from dose-mortality curves, single i.p. injection
Measured endpoint: LD0 (mg/kg)
Answers are plain numbers, in mg/kg.

- O=[N+]([O-])C=Cc1ccc(Br)o1 [B, 2-bromo-5-(2-nitrovinyl)-furan]: 45

// C[C@@H]1[C@H](O)[C@@H](C)/C=C/C=C/C=C/C=C/C=C/C=C/C=C/[C@H](O[C@@H]2O[C@H](C)[C@@H](O)[C@H](N)[C@@H]2O)C[C@@H]2O[C@](O)(C[C@@H](O)C[C@@H](O)[C@H](O)CC[C@@H](O)C[C@@H](O)CC(=O)O[C@H]1C)C[C@H](O)[C@H]2C(=O)O [Amphotericin B, reference compound] : LD0 value = 15
